Consider the following compounds; for each one, report its inhibition.
assay: ATP-evoked calcium signal inhibitors, parental CHO, primary screen, counter-screen for OX1R antagonist project, cell-based, fluorescence, Fluo-8 calcium dye (AID 463079); settings: parental CHO-K1, ATP-induced calcium, Fluo-8 fluorescence; at 5.6 µM; active compounds read high;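 note: 0% = ATP-challenged DMSO wells and 100% = DMSO wells without ATP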
About 2,000 (0.61%) of roughly 330,000 compounds were called active. The list comes from a sample in which actives are over-represented; it also holds close analogues and randomly drawn compounds.
Please reply with the bare figure in % and do not write the unit itself.

Provide only the value of recorded inhibition for COc1ccc(NS(=O)(=O)c2ccc(C(=O)Nc3c(C)n(C)n(-c4ccccc4)c3=O)cc2)cc1
-3.65

Provide only the value of recorded inhibition for COc1cccc(-c2coc3cc4oc(=O)c(CC(=O)O)c(C)c4cc23)c1
1.98

Provide only the value of recorded inhibition for Cc1ccc(C)c(S(=O)(=O)N2CCN(c3ncnc4sccc34)CC2)c1
62.3

Provide only the value of recorded inhibition for CCN(CC)S(=O)(=O)c1ccc(N(C)Cc2ccc(C(F)(F)F)cc2)nc1
43.6

Provide only the value of recorded inhibition for COc1ccccc1C(=O)C(O)c1ccccc1OC (stereo unspecified)
-2.08

Provide only the value of recorded inhibition for CCOC(=O)C1=CN(Cc2ccc(Br)cc2)S(=O)(=O)N(C)C1C (stereo unspecified)
-13.1

Provide only the value of recorded inhibition for CN1CCC(=NNC(=O)CN(c2cccc(Cl)c2)S(C)(=O)=O)CC1
-9.11

Provide only the value of recorded inhibition for COc1cccc(CNc2nc(C(F)(F)F)nc3ccccc23)c1
-21.9

Provide only the value of recorded inhibition for O=C(CSc1ncn[nH]1)Nc1nsc(-c2ccccc2)n1
0.25

Provide only the value of recorded inhibition for C/C(=N\NC(=O)c1ccc(CSc2nc(C)cc(C)n2)cc1)C1CCCCC1
-15.5

Provide only the value of recorded inhibition for COc1ccc(NS(=O)(=O)c2ccc(NC(=O)c3ccc(N(C)S(C)(=O)=O)cc3)cc2)cc1
31.2

Provide only the value of recorded inhibition for COc1ccc(NS(=O)(=O)c2ccc(NC(=S)NC(=O)CC(C)C)cc2)cc1
44.3

Provide only the value of recorded inhibition for Cc1nc2ccccc2c(=O)n1NC(=O)c1ccccc1
-3.13

Provide only the value of recorded inhibition for Cc1ccc(-c2nnn(CC(=O)N(CCO)C(C(=O)NC(C)(C)C)c3ccncc3)n2)cc1 (stereo unspecified)
-17.6

Provide only the value of recorded inhibition for CCN(CC)S(=O)(=O)c1ccc(N(C)CCc2ccc(OC)c(OC)c2)nc1
-13.7

Provide only the value of recorded inhibition for Cc1ccc(OCC(=O)Nc2ccccc2C(=O)NC2CC2)cc1
-12.7

Provide only the value of recorded inhibition for Cc1cccc(NC(=S)NCCc2ccc(F)cc2)c1C
-8.34

Provide only the value of recorded inhibition for COc1ccc(C(=O)OCC(=O)c2cc(C)n(CC3CCCO3)c2C)cc1[N+](=O)[O-] (stereo unspecified)
-4.71

Provide only the value of recorded inhibition for COC(=O)c1ccccc1Sc1c(/C=N/OCc2ccc(Cl)cc2)c(C(F)(F)F)nn1C
-7.11

Provide only the value of recorded inhibition for COCCCNc1nc2c(-c3cccc(C)c3)nnn2c2ccc(Cl)cc12
-27.9

Provide only the value of recorded inhibition for CC[C@]1(C(=O)OC)[C@H]2C(=O)N(Cc3ccccc3)C(=O)[C@H]2[C@H]2CN=C(SCc3ccccc3)N21
-23.1

Provide only the value of recorded inhibition for COc1ccc(-c2nnc(SCC(=O)c3ccc4c(c3)OCCO4)o2)cc1
-4.45

Provide only the value of recorded inhibition for COc1ccccc1Oc1ccc(S(=O)(=O)Nc2cccnc2)cc1
36.9

Provide only the value of recorded inhibition for COc1ccc(CNc2ncnc3ccccc23)cc1
30

Provide only the value of recorded inhibition for Cc1cc(C)c(C)c(S(=O)(=O)Nc2cccnc2)c1C
-11.2

Provide only the value of recorded inhibition for CNS(=O)(=O)c1ccc(C(=O)NCC(=O)NCCc2ccc3c(c2)OCCO3)cc1
-17.8

Provide only the value of recorded inhibition for CC(C)CNC(=O)C(=O)Nc1ccc(N(C)C)cc1
-6.25

Provide only the value of recorded inhibition for COc1ccc(C)cc1S(=O)(=O)N1CCN(S(=O)(=O)c2cc(C(=O)O)ccc2C)CC1
-11.5

Provide only the value of recorded inhibition for COc1ccc(S(=O)(=O)Nc2cccnc2)c(Cl)c1Cl
-1.47

Provide only the value of recorded inhibition for O=C(O)CSc1c2c(nc3cc(C(=O)Nc4cccc(C(F)(F)F)c4)ccc13)CCCC2
-7.81

Provide only the value of recorded inhibition for COc1ccc(-n2c(C)cc(C(=O)COC(=O)c3cc(OC)c(OC)cc3NC(=O)c3cccs3)c2C)cc1
-15.5
